Reference source: patent US20260315487A1

Molecular target: IKKα (Homo sapiens, UniProt O15111)
Sequence (O15111 1-745): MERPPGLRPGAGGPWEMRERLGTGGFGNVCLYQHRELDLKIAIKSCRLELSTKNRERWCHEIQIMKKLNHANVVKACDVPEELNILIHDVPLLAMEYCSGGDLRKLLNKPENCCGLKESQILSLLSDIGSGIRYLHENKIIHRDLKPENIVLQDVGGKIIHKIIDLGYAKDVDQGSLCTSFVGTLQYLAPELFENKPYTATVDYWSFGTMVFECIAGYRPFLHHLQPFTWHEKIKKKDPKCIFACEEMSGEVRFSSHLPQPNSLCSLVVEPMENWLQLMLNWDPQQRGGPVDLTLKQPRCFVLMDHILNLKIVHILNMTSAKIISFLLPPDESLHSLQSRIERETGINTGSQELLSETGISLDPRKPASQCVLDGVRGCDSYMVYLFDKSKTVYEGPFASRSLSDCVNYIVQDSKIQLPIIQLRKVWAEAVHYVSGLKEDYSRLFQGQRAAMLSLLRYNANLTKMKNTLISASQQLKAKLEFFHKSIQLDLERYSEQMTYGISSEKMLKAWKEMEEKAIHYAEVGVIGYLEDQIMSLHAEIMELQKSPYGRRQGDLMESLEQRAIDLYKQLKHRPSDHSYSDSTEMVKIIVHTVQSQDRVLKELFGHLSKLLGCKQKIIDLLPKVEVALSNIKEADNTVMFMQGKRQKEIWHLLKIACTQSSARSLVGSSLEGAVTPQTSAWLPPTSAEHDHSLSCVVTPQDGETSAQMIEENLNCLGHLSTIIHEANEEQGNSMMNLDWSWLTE
Experiment: in-house DELFIA kinase assay, IKKα
Format: biochemical
attribute_measured: Ki (nM)

Here are 4 compounds together with their reported answers.
mol_smiles | unit | Ki
Nc1n[nH]c2ccc(-c3ccnc4[nH]c(-c5ccccc5OCc5ccccc5)cc34)cc12 | nM | 57
Nc1n[nH]c2ccc(-c3ccnc4[nH]c(-c5cncc(OCc6ccccc6)c5)cc34)cc12 | nM | 21
CS(=O)(=O)c1cccc(-c2cc3c(-c4ccc5[nH]nc(N)c5c4)ccnc3[nH]2)c1 | nM | 3
COCCNC(=O)c1cccc(-c2cc3c(-c4ccc5[nH]nc(N)c5c4)ccnc3[nH]2)c1 | nM | 15

(A) Nc1n[nH]c2ccc(-c3ccnc4[nH]c(-c5cccc(OCc6ccccc6)c5)cc34)cc12
(B) COc1ccc(COc2cccc(-c3cc4c(-c5ccc6[nH]nc(N)c6c5)ccnc4[nH]3)c2)cc1
(C) CC(C)COc1cccc(-c2cc3c(-c4ccc5[nH]nc(N)c5c4)ccnc3[nH]2)c1
(D) Nc1n[nH]c2ccc(-c3ccnc4[nH]c(-c5ccnc(SCc6ccccc6)c5)cc34)cc12
// smallest Ki at index 0, largest at the end Answer with the labels in sequence, matching the requested order.
D, A, C, B
